test system: A431 cells; test: Evaluation of intracellular transfer ability of peptide (cytotoxicity test by PSIF; MTT assay); assay type: cell-based, human; details: 5 μL culture supernatant containing fusion body of peptide and PSIF, cycloheximide 10 μg/mL, 24 hours, viability of TAT peptide (Tat 48-60)-PSIF group taken as 100%
quantity-name: Viability

seq	system-tested	Viability
GILLRNQVLPPQI [SEQ ID NO 3, cell permeable peptide, tested as fusion body with PSIF]	A431 cells	about 65%
SSGANYFFNAIYDFLSNF [SEQ ID NO 15, cell permeable peptide, tested as fusion body with PSIF]	A431 cells	about 35%
SMTTMEFGHSMITPYKID [SEQ ID NO 7, cell permeable peptide, tested as fusion body with PSIF]	A431 cells	about 45%
GRKKRRQRRRPPQ [SEQ ID NO 17, TAT peptide (Tat 48-60) derived from HIV Tat protein, reference compound]	A431 cells	100%
GIASNGQLPTPKT [SEQ ID NO 5, cell permeable peptide, tested as fusion body with PSIF]	A431 cells	about 35%
GSNFFYQHRLPFS [SEQ ID NO 1, cell permeable peptide, tested as fusion body with PSIF]	A431 cells	about 45%
QDGGTWHLVAYCAKSHRY [SEQ ID NO 9, cell permeable peptide, tested as fusion body with PSIF]	A431 cells	about 45%
SGEHTNGPSKTSVRWVWD [SEQ ID NO 6, cell permeable peptide, tested as fusion body with PSIF]	A431 cells	about 35%

The sequence listed as YSSAYEWFNRYKQPYYEL [SEQ ID NO 14, cell permeable peptide, tested as fusion body with PSIF] has a reported Viability of about 65%

The sequence listed as SPGNQSTGVIGTPSFSNH [SEQ ID NO 11, cell permeable peptide, tested as fusion body with PSIF] has a reported Viability of about 45%
